pKi values, listed per item
Biological target: Muscarinic acetylcholine receptor M1 (Rattus norvegicus, UniProt P08482)
Sequence (P08482 whole entry): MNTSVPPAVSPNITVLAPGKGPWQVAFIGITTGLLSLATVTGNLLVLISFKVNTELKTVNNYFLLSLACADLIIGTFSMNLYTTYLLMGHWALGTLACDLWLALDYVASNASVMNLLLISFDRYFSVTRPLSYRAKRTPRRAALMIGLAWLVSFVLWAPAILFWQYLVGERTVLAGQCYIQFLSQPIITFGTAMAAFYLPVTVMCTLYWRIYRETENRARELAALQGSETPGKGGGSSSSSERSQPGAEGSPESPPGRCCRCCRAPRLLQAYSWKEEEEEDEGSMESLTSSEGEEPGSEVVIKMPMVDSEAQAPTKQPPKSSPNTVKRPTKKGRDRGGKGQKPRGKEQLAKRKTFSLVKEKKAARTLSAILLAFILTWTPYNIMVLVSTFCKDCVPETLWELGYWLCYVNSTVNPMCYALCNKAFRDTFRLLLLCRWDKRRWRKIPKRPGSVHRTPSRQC
Assay: In vitro 100 nM cortex affinity to displace [3H]- -pirenzepine providing a measure of muscarinic m1 receptor antagonist affinity
pKi: −log10 of the molar value.
quantity.measured: pKi

| compound | result.modifier | value.reported |
| --- | --- | --- |
| CC1OCC2(CCN(C)CC2)S1 (centres undefined) | = | 5.50 |
| C[C@@H]1OCC2(CCN(C)C2)S1 (some centres undefined) | < | 5.00 |
| C[C@H]1OC2(CCN(C)C2)CS1 (some centres undefined) | = | 5.17 |
| C[C@@H]1OC2(CS1)CN1CCC2CC1 (some centres undefined) | = | 5.90 |
| CC1OC[C@@]2(CN3CCC2C3)O1 (some centres undefined) | = | 5.71 |
| C[C@H]1OC[C@@H](C[N+](C)(C)C)O1 | = | 5.68 |
| CC1OCC2(CC[N+](C)(C)CC2)O1 (centres undefined) | = | 5.30 |
| C[C@H]1OC2(CS1)CN1CCC2CC1 (some centres undefined) | = | 6.37 |
| C#CC1OCC2(CCN(C)CC2)O1 (centres undefined) | = | 5.52 |
| CN1CCC2(CC1)COC(C(Cl)(Cl)Cl)O2 (centres undefined) | = | 6.70 |
| COC1OCC2(CCN(C)CC2)O1 (centres undefined) | < | 5.00 |
| C[C@@H]1OCC2(CCN(C)C2)O1 (stereo in doubt; trans) | < | 5.00 |
| CN1CCC2(CC1)COCO2 | < | 5.00 |
| CCC1OCC2(CCN(C)CC2)O1 (centres undefined) | = | 5.88 |
| C[C@@H]1OCC2(CN3CCC2CC3)O1 (some centres undefined) | = | 5.80 |
| C[C@H]1OCC2(CN3CCC2C3)O1 (some centres undefined) | < | 5.00 |
| CC1OCC2(CCNCC2)O1 (centres undefined) | < | 5.00 |
| CC1OC2(CCN(C)CC2)CS1 (centres undefined) | = | 5.58 |
| CC1C(=O)CC2(CCN(C)CC2)C1=O (centres undefined) | = | 5.39 |

----------
Entries with reported pD2 on UniProt P08482

| compound | result.modifier | pD2 |
| --- | --- | --- |
| CC1OCC2(CCCN(C)C2)O1 (stereo not given) | < | 4 |
| C[C@H]1OC2(CCN(C)C2)CS1 (stereo not given in full) | = | 5.7 |
| C[C@H]1OC2(CS1)CN1CCC2CC1 (stereo not given in full) | = | 6.1 |
| CC1OC2(CCN(C)CC2)CS1 (stereo not given) | = | 6.1 |
| CCC1C(=O)CC2(CCN(C)CC2)C1=O (stereo not given) | = | 6.7 |
| C[C@@H]1OC2(CS1)CN1CCC2CC1 (stereo not given in full) | = | 5.7 |
| C[C@@H]1OCC2(CCN(C)C2)O1 (stereo in doubt; cis) | = | 5.6 |
| CC1OCC2(CCNCC2)O1 (stereo not given) | = | 5.9 |
| C[C@@H]1OCC2(CN3CCC2C3)O1 (stereo not given in full) | = | 5.7 |
| C[C@@H]1O[C@H](C[N+](C)(C)C)C[C@H]1O | = | 7.4 |
| CC[C@H](C)[C@@H]1NC(=O)[C@H](CCCN=C(N)N)NC(=O)[C@@H](CC(=O)O)NC(=O)[C@H]([C@@H](C)CC)NC(=O)[C@@H](CCCN=C(N)N)NC(=O)CNC(=O)CNC(=O)[C@@H](Cc2ccccc2)NC(=O)[C@H](C)NC(=O)[C@@H](NC(=O)[C@H](CO)NC(=O)[C@@H](N)CO)CSSC[C@@H](C(=O)N2C[C@H](C(=O)N[C@H](CCCN=C(N)N)C(=O)O)Cc3ccccc32)NC1=O | < | 4 |
| C[C@@H]1OCC2(CN3CCC2CC3)O1 (stereo not given in full) | = | 6 |
| CC1C(=O)CC2(CCN(C)CC2)C1=O (stereo not given) | = | 6.2 |
| C[C@H]1OCC2(CN3CCC2C3)O1 (stereo not given in full) | = | 4.4 |
| CN1CCC2(CC1)COC(C)(C)O2 | < | 4 |
